# Study Target: Phosphodiesterase 4 (Homo sapiens, UniProt P27815+Q08499+Q07343+Q08493)
# Test Details: Inhibition of phosphodiesterase 4
# Format: protein assay
Measured Parameter: IC50 (nM)

// known answers, use as guide
COc1ccc(S(=O)(=O)n2c(-c3ccccc3)cc3ccccc3c2=O)cc1OC ... 600
COc1ccc(S(=O)(=O)n2ccc3ccccc3c2=O)cc1OC ... 500

(I) COc1ccc(S(=O)(=O)n2c(-c3ccccc3)cc3ncccc3c2=O)cc1OC
(II) COc1ccc(S(=O)(=O)n2c(=O)cc(-c3ccccc3)c3ccccc32)cc1OC
(III) COc1ccc(S(=O)(=O)NCCC#N)cc1OC
query: Hello, I need these entries ordered by IC50, highest reading first. Thanks! Respond with the label ranking, as requested.
result: III, I, II

====

# Study Target: Phosphodiesterase 4 (Homo sapiens, UniProt P27815+Q08499+Q07343+Q08493)
# Test Details: In vitro binding activity towards catalytic site of phosphodiesterase 4
# Format: protein assay
Measured Parameter: IC50 (µM)

COc1ccc(S(=O)(=O)N(CC(C)=O)Cc2ccco2)cc1OC ... 24

(A) CCCN(Cc1ccc(C(=O)NC)cc1)S(=O)(=O)c1ccc(OC)c(OC)c1
(B) COc1ccc(S(=O)(=O)N(CCC#N)Cc2ccco2)cc1OC
(C) COc1ccc(S(=O)(=O)NC2CCc3cc(Cl)ccc32)cc1OC (centres undefined)
(D) COc1ccc(S(=O)(=O)N(Cc2cccnc2)S(=O)(=O)CCNS(=O)(=O)c2ccccc2)cc1OC
query: Hello, I need these entries ordered by IC50, highest reading first. Thanks! Respond with the label ranking, as requested.
result: B, C, D, A
(B: 10 µM, C: 5.2 µM, D: 3 µM, A: 1.9 µM)

(A) COc1ccc(S(=O)(=O)N(Cc2cccnc2)C2CCc3ccccc32)cc1OC (centres undefined)
(B) COc1ccc(S(=O)(=O)N(Cc2ccccn2)C2CCc3ccccc32)cc1OC (centres undefined)
(C) COc1ccc(S(=O)(=O)NC2CCCC2)cc1OC
(D) COc1ccc2c(c1)C(NS(=O)(=O)c1ccc(OC)c(OC)c1)CC2 (centres undefined)
query: Endpoint returns the given compounds ordered by ascending IC50. Respond with the label ranking, as requested.
result: D, B, A, C
(D: 2.5 µM, B: 5.3 µM, A: 9 µM, C: 100 µM)

(1) COc1ccc(S(=O)(=O)N(CCC#N)C2CCc3ccccc32)cc1OC (centres undefined)
(2) COc1ccc(S(=O)(=O)N(Cc2ccccc2)Cc2ccccn2)cc1OC
(3) COc1ccc(S(=O)(=O)N(Cc2cccnc2)S(C)(=O)=O)cc1OCCCCCc1ccccc1
(4) COc1ccc(C(=O)N2CCCc3ccccc32)cc1OC
query: Hello, I need these entries ordered by IC50, highest reading first. Thanks! Respond with the label ranking, as requested.
result: 4, 2, 1, 3

(A) COc1ccc(S(=O)(=O)N(CCC#N)C2CCCc3ccccc32)cc1OC (centres undefined)
(B) COC(=O)CN(Cc1ccco1)S(=O)(=O)c1ccc(OC)c(OC)c1
query: Among A and B , which shows a numerically higher IC50 result? Reply briefly: the label of your chosen item.
result: B
(B: 10 µM, A: 6.4 µM)

====

Examples of molecules with documented Ratio follow.
# Study Target: Phosphodiesterase 4 (Homo sapiens, UniProt P27815+Q08499+Q07343+Q08493)
# Test Details: Ratio of binding activity at catalytic site to Rolipram binding site of PDE4
# Type: protein assay

// known answers, use as guide
COc1ccc(S(=O)(=O)N(Cc2cccnc2)C2CCc3ccccc32)cc1OC (stereo not given) ... < 0.9
COc1ccc(S(=O)(=O)N(Cc2ccccc2)Cc2cccnc2)cc1OC ... < 1
COc1ccc(S(=O)(=O)N(CCC#N)C2CCc3ccccc32)cc1OC (stereo not given) ... < 0.4
COc1ccc(S(=O)(=O)N(Cc2cccnc2)S(C)(=O)=O)cc1OCCCCCc1ccccc1 ... < 1
COc1ccc(S(=O)(=O)N(CCC#N)Cc2ccco2)cc1OC1CCCC1 ... > 1

query: Please look at this molecule and report its Ratio: COc1ccc(S(=O)(=O)N(Cc2ccccc2)Cc2ccccn2)cc1OC
result: < 0.7

query: Please look at this molecule and report its Ratio: COc1ccc(S(=O)(=O)N(CCC#N)C2CCCc3ccccc32)cc1OC (stereo not given)
result: < 0.6

query: Please look at this molecule and report its Ratio: COc1ccc(C(=O)N2CCCc3ccccc32)cc1OC
result: < 1

query: Please look at this molecule and report its Ratio: COc1ccc(S(=O)(=O)NC2CCc3ccccc32)cc1OC (stereo not given)
result: < 0.6

query: Please look at this molecule and report its Ratio: COc1ccc(S(=O)(=O)N2CCc3ccccc32)cc1OC
result: < 0.43

query: Please look at this molecule and report its Ratio: COc1ccc(C(=O)NC2CCc3ccccc32)cc1OC (stereo not given)
result: 3.7

====

# Study Target: Phosphodiesterase 4 (Homo sapiens, UniProt P27815+Q08499+Q07343+Q08493)
# Test Details: Binding activity towards Rolipram binding site of phosphodiesterase 4 at concentration 10 uM
# Format: protein assay
Measured Parameter: inhibition (%)

// known answers, use as guide
COc1ccc(S(=O)(=O)N(Cc2ccccn2)C2CCc3ccccc32)cc1OC (stereo unspecified) ... 12
COc1ccc(S(=O)(=O)NC2CCc3cc(Cl)ccc32)cc1OC (stereo unspecified) ... 12
COc1ccc(S(=O)(=O)N(CCCC#N)Cc2ccco2)cc1OC ... 37
COc1ccc(S(=O)(=O)NC2CCc3ccccc32)cc1OC (stereo unspecified) ... 12
COc1ccc(S(=O)(=O)n2c(-c3ccccc3)cc3ncccc3c2=O)cc1OC ... 20

(A) COc1ccc(S(=O)(=O)N(Cc2ccccc2)Cc2ccccn2)cc1OC
(B) COc1ccc(C(=O)N2CCCc3ccccc32)cc1OC
(C) COc1ccc(S(=O)(=O)N(CCC#N)Cc2ccco2)cc1OC
(D) COc1ccc2c(c1)C(NS(=O)(=O)c1ccc(OC)c(OC)c1)CC2 (stereo unspecified)
query: Hello, I need these entries ordered by inhibition, highest reading first. Thanks! Respond with the label ranking, as requested.
result: C, B, A, D

(P) COc1ccc(S(=O)(=O)n2c(=O)cc(-c3ccccc3)c3ccccc32)cc1OC
(Q) COc1ccc(S(=O)(=O)N(Cc2cccnc2)C2CCc3ccccc32)cc1OC (stereo unspecified)
query: Among P and Q , which shows a numerically higher inhibition result? Reply briefly: the label of your chosen item.
result: Q

====

# Study Target: Phosphodiesterase 4 (Homo sapiens, UniProt P27815+Q08499+Q07343+Q08493)
# Test Details: Ratio of binding activity at catalytic site to Rolipram binding site of PDE4
# Format: protein assay
Measured Parameter: Ratio

// known answers, use as guide
COc1ccc(S(=O)(=O)N(CCC#N)CC2CCCO2)cc1OC (stereo unspecified) ... 0.17
CCCN(Cc1ccco1)S(=O)(=O)c1ccc(OC)c(OC)c1 ... 0.1

(P) COc1ccc(S(=O)(=O)N(Cc2cccnc2)S(C)(=O)=O)cc1OC1CCCC1
(Q) COc1ccc(S(=O)(=O)N(Cc2cccnc2)S(=O)(=O)CCNS(=O)(=O)c2ccccc2)cc1OC
(R) COc1ccc(S(=O)(=O)N(CC(C)=O)Cc2ccco2)cc1OC
query: Endpoint returns the given compounds ordered by ascending Ratio. Respond with the label ranking, as requested.
result: Q, P, R

====

# Study Target: Phosphodiesterase 4 (Homo sapiens, UniProt P27815+Q08499+Q07343+Q08493)
# Test Details: Binding activity towards Rolipram binding site of phosphodiesterase 4
# Assay type: protein assay
Measured Parameter: IC50 (µM)

COc1ccc(S(=O)(=O)N(CCC#N)CC2CCCO2)cc1OC (stereo not given) ... 112
COc1ccc(S(=O)(=O)NCCC#N)cc1OC ... 50
COc1ccc(S(=O)(=O)N(CC(C)=O)Cc2ccco2)cc1OC ... 35

(P) CCCN(Cc1ccc(C(=O)NC)cc1)S(=O)(=O)c1ccc(OC)c(OC)c1
(Q) COc1ccc(S(=O)(=O)N(Cc2cccnc2)S(C)(=O)=O)cc1OC
(R) COc1ccc(S(=O)(=O)N(CCC#N)Cc2ccco2)cc1OC1CCCC1
query: Endpoint returns the given molecules ordered by ascending IC50. Respond with the label ranking, as requested.
result: P, R, Q
(P: 4.3 µM, R: 10 µM, Q: 50 µM)

(P) COc1ccc(C(=O)NC2CCc3ccccc32)cc1OC (stereo not given)
(Q) COc1ccc(S(=O)(=O)N(Cc2cccnc2)S(C)(=O)=O)cc1OC1CCCC1
(R) COc1ccc(S(=O)(=O)N(Cc2cccnc2)S(=O)(=O)CCNS(=O)(=O)c2ccccc2)cc1OC
query: Endpoint returns the given molecules ordered by ascending IC50. Respond with the label ranking, as requested.
result: P, Q, R

====

# Study Target: Phosphodiesterase 4 (Homo sapiens, UniProt P27815+Q08499+Q07343+Q08493)
# Test Details: Binding activity towards Rolipram binding site of phosphodiesterase 4 at concentration 10 uM
# Assay type: protein assay
Measured Parameter: inhibition (%)

// known answers, use as guide
COc1ccc(S(=O)(=O)N(CCC#N)C2CCc3ccccc32)cc1OC (stereo not given) ... 26
COc1ccc(S(=O)(=O)N(CCC#N)C2CCCc3ccccc32)cc1OC (stereo not given) ... 30

(P) COc1ccc(S(=O)(=O)N2CCc3ccccc32)cc1OC
(Q) COc1ccc(S(=O)(=O)n2c(-c3ccccc3)cc3ccccc3c2=O)cc1OC
query: Identify the item whose inhibition is the smaller number: P or Q Reply briefly: the label of your chosen item.
result: P
